- Tested on: NCI-H322M lung
- MEASUREMENT PROTOCOL: NCI-60 one-dose screen, 48 h (100 = growth as untreated, 0 = no growth, -100 = all killed)
- EXPERIMENTAL CONDITIONS: 10 µM unless noted
This is part of a sample that, as a whole, favours compounds with a hit. Of some 83,000 tested, about 20% had one in any assay.
PROPERTY NAME: growth (%)

>>> measured_value("CC(=O)[C@@]1(O)CC[C@H]2[C@@H]3CC[C@@H]4CC(=O)CC[C@]4(C)[C@H]3[C@@H](O)C[C@@]21C")
105
>>> measured_value("COc1ccc(C(=O)C(=O)c2ccccc2)cc1")
93.8
>>> measured_value("CC(C)(C)NCCC(O)c1cc(C(F)(F)F)nc2c(C(F)(F)F)cccc12 (centres undefined)")
76.2
>>> measured_value("COc1cc2c(c(OC)c1OC)-c1ccc(SC)c(=O)cc1[C@@H](NC1OC(CO)C(O)C(O)C1O)CC2 (some centres undefined)")
33

---

- Test system: OVCAR-3 ovarian
- MEASUREMENT PROTOCOL: NCI-60 one-dose screen, 48 h (100 = growth as untreated, 0 = no growth, -100 = all killed)
- EXPERIMENTAL CONDITIONS: 10 µM unless noted
About 83,000 compounds went through this panel and 20% of them were active in at least one assay; those are over-represented in the sample as a whole.
PROPERTY NAME: growth (%)

>>> measured_value("C=CC(C)C(C)(C)O (centres undefined)")
102
>>> measured_value("COc1cc(OC)c2cc(C(=O)c3ccc(C#N)cc3)c(=O)oc2c1")
107
>>> measured_value("Nc1ccc(F)c(Cl)c1F")
111
>>> measured_value("Cc1ccc(C)c2c1CCC2=O")
96.7
>>> measured_value("CC(=O)[C@@]1(O)CC[C@H]2[C@@H]3CC[C@@H]4CC(=O)CC[C@]4(C)[C@H]3[C@@H](O)C[C@@]21C")
109
>>> measured_value("CCN(CC)c1ccc2nc3ccc(N=Nc4ccc(N(C)C)cc4)cc3[n+](-c3ccccc3)c2c1")
-30.6
>>> measured_value("C=C(OC(C)=O)c1ccccc1")
112
>>> measured_value("O=C(OCC1CCCO1)c1ccc([N+](=O)[O-])cc1 (centres undefined)")
111
>>> measured_value("Nc1ccccc1SC1CC(=O)N(c2ccc(Cl)c(Cl)c2)C1=O (centres undefined)")
113
>>> measured_value("Cc1ccc(NCN2C(=O)c3ccccc3C2=O)c(C)n1")
130
>>> measured_value("Nc1ccn(C2CC(N)C(CO)O2)c(=O)n1 (centres undefined)")
115
>>> measured_value("NNc1ncnc2nc[nH]c12")
79
>>> measured_value("Cc1ccc2nc(-c3ccc(N=Cc4ccccc4O)cc3)sc2c1")
84.8
>>> measured_value("CC(=O)OC/C(C)=C\\CC(C)COC(C)=O (centres undefined)")
112
>>> measured_value("Nc1nc(N)nc(N2CCCCC2)n1")
105
>>> measured_value("Nc1ncnc(Nc2ccccc2)n1")
117
>>> measured_value("CCOC(=N)CC(=O)Nc1cccc(C)c1Cl")
104
>>> measured_value("Cc1ccc(O)c(N)c1")
118
>>> measured_value("O=C1C=C[C@H](O)[C@@]2(CO)O[C@@H]12")
55

Values compiled from PubChem BioAssay (NCI).
